Tested on: K4 kissing-loop RNA reporter;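 also: bound reporter read as fluorescence of individual clusters on recovered sequencing chips by microscopy, with normalized cluster intensities fitted with a binding model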
Assay overview: apparent KD of K4 kissing-loop reporter; higher = weaker reporter binding
Measurement setup: Eterna round: R107; input ligand: tryptophan 2.4 mM

Record sequence	apparent KD of K4 kissing-loop reporter [nM]
UGUGCUGUGUAGUGUAAUGUUAUGCGGGAUACCAGAGUCUUUUUAUUCCCUUGGCAGCUUGAGUGAUGUUUGAUGCUGUUCUUGU [uujmullin]	287
UUCUUGAUGGAAACAUCGAGAAUUACUGAUACCAGUAUCGAUAGAUACCCUUGGCAGCAGAAUCAGUAAUAACGAGUGAUGUUCG [Ex Theophylline A K4 4]	243
CCAUUCAUUUACGAUACCAGUCUAAUAUAUUGAAUCAAAACCCUCGCCGAGUGAUGUUCGGACCCUUGGCAGCGUCUGCGAGAGG [ddrdkmullin]	519
GGCAUCCAUGGACAUAGUGAUGUUAUGUACCGAGGACCGGUACGGCCGCCACUCGGCCAUGGAUGCCGCAAUCGGAAACGAUUGC	290
AUUCGUUUAUGUGAUACCAGACUUUGCAGUGAUGUUGCAUUUAUUUUUGAAUUUUAGUUUGUCCCUUGGCAGCACUAUUUAUUUA [JR_SSTheophyB_Sub005]	42.3
GCAAAGUGUCAUAUUAUCUAGCAGCUGCGAAAGGAUAUGAGAGUGCUCAGAAGGUUCUUGGCGGAGUGAUGUUCCGCGUAAAUGG [theeternabot_exclusion_KL_FMN_A_22]	81.4
AGUGAUGUUGUGUGAUGUUAGUGAAGUGAUCGAGGACCGGUACGGCCGCCACUCGAGUGAUGAGUGAGUGAUGUUUGUUUAGUGG [#17 K4 Tryptophan A Same State]	139
AGAACUGUCUGGGAUACCAGCCGAGGAGUGAUGUUCCGGCUCGACGAAACGUCGAGCUACGGCCCUUGGCAGCUCAGACAGUUCA [#22 K4 Theophylline B Same State]	340
GGAGUUACCUGGGAUACCAGUCGGAGUCCCAGAGCACAGAGUGAUGUUCUGGGAUGUUUCGGCCCUUGGCAGCUCUGGGACUCCC [#2 Exclusion - Theophylline B Attempt #13 (HarryS)]	222
UGUGUUUACCUGACUCAGUGAUGUUGAGAAGGAGCGUGCGAACGCACAGGUAGGUCGCUCAACCUAAAUUCAGGUGAGCACUAAA	398
GCCGUAGAUUGAAGGAGCGGUGAAUGCAGGUGAGUCCUUUAGAUGUUUAGUGAUGUUAAACACCAGGUAGGUCGCAAUCUACGGC	192
AAUGUAUACUGAAGGAGCGAGUAGUGGAAACAUAAACUCAAUGCGAGUGAUGUUCGCAGUACUCAGGUAGGUCGCAGUAAUGGUA [Exclusion Arginine B Gf 8]	406
UUUUUGGAGAAUUAUAGUGAUGUUAUGAAGGAGGAUAUCUAAAGAUGGAGAAGGUUUAAUAGUUAAGGGAUGGAGGGUGGGUGGG [ExFMNA.Q]	229
GUAGCACAGUCGGCCGCCACUGUCGGUUCUCCAGUGAUGUUGGAGUUAGUUCGUCGCAGUUCAAACAGGACCGGGACCAUUCCUU [theeternabot_exclusion_KL_Trp_B_26]	121
UCUGUGUCCGCGGCCGCCACUCGGGACUAAGUGAUGUUUAGUCCUUCAGAAUAAAGAAGUGAUGAGAGGACCGGGCGAUCGCACC [theeternabot_sameState_KL_Trp_B_2]	102
UAUAAUUCGGCGGCCGCCACUGACCAUAGCCUUCGAUGGCCAGUGAUGUUGGCCUCUGGCUCUAACAGGACCGGGCCGAAUUGUG [Reresoza]	120
GUAUAAAUAUAAGGAUAUGCAGGGAAAGUAAGAAUGGGUUAGUUGAACUUUAGUGAUGUUGAGGAAGCAGAAGGUGUAUAUGUGU [FMN B same state]	319
CACUUACGUAGUGAUGUUACGAUCUCUGAUACCAGACAACUCUAAGUCCCUUGGCAGCAGUCAUUUUGCUUAUUAUUUACUCAAA [JR_ExcTheophyA_Sub017]	456
UCGGACGCGCACCUAGGCCAAUCCACUGCGAAGGAUAUGCGCGCCAGCAGAAGGUCGUUUUAUGAGUGAUGUUUAGAAACAGCGU [theeternabot_exclusion_KL_FMN_A_25]	246
GAUUGAGUGAUGUUCAAUUAGUAUCUAGAUACCAGAAUGUCUACCUUCCCUUGGCAGCUACUGACGGUGAUCAUUUCGCGCGCAG [theeternabot_sameState_KL_Theo_A_19]	195
CGCAGUGAUGUUGCGAGUAGAUACAGGGAAGGAGCGCGGUAGUACGCAGGUAGGUCGCCCACGCAGUGAUGUUGCGUCAUAGGGU [Exclusion Arginine A GF6]	95.7
UAAUGGUAAGUGAUGUUUACCUGGAACGAUACCAGUCGCCAUGAGGACCCUUGGCAGCGUCACACAGCCUUCUAGUUGUGGUCUU [theeternabot_sameState_KL_Theo_A_46]	353
UGUGAACAAAAGUAGAGUGGACCACUAUAGCGAGGACCGGUACGGCCGCCACUCGUGCAUGAAUUCAGUGAUGUUGAAAAGAGCU [whbob_EX_Tryp_A_t12]	185
